Test: amyloid nucleation score (Sup35N fusion, yeast selection) (log enrichment); library NNK1; higher = more nucleation; inactive = no reads after selection;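 also: zero at mode of non-aggregating sequences after 7 days selection at 30°C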
Given measured amyloid nucleation score, output Yes if it is greater than or equal to 0.01 and No if not.

INSERT INTO measurements (substance, label_class) VALUES
  ('RMAKYNFVIISVTDDVRQKC', 'Yes'),
  ('RLPRQYVMG', 'No'),
  ('PERTSMGSKFTTDN', 'No'),
  ('FKSASVRRI', 'No'),
  ('VVEFCCVQT', 'No'),
  ('IHSGQAEMGTLRYHSNKCKD', 'No'),
  ('NLSSTEYAFNISDGEKRHED', 'Yes'),
  ('NVGVMGFISASVWLFCWGIF', 'No'),
  ('RNINLANHGCSSISLVYLPS', 'Yes'),
  ('MWTNWDVLPELDGTPRALLW', 'No'),
  ('DCEGLFI', 'Yes'),
  ('YFAVWSSRDTFRFYLILINP', 'No'),
  ('EGTSPHMHSIRFTLSQLPSF', 'Yes'),
  ('SLVMKVPLFECVCIGMCGRA', 'Yes'),
  ('ELVLSSSWFRRNSYALCKLR', 'Yes'),
  ('QRSNRGLPYKSRDGI', 'Yes'),
  ('TVSKLSCYNVVDPTIWNLSD', 'Yes'),
  ('KNNVDSKHS', 'Yes'),
  ('QRGAVVQDLAM', 'Yes'),
  ('TFRRFGYTELYCGENSLLEC', 'No'),
  ('SALRTCKFN', 'Yes'),
  ('RDNCSLNVYFK', 'Yes'),
  ('AFLLEMKTKAATPRCYLRDM', 'Yes'),
  ('STFNFTRIASADMSGTSTIW', 'Yes'),
  ('DFARNQDGSFVWN', 'No'),
  ('MHISWPYYRHDIVRRKSCSA', 'Yes'),
  ('WMYDSLDTSMTLANSHLQTL', 'No'),
  ('LCMNCVIQSDKRSSLLCYER', 'No');

----------
Test: amyloid nucleation score (Sup35N fusion, yeast selection) (log enrichment); library NNK1; higher = more nucleation; inactive = no reads after selection
ATTRIBUTE_MEASURED: amyloid nucleation score

INSERT INTO measurements (substance, value_measured) VALUES
  ('QKPTMFGA', -0.338),
  ('SSLVATPLGLELIKGRSSSL', 0.57),
  ('CIIVFPISTPWAQGSYIRIQ', 0.041),
  ('TIWVEKLWDIYI', 'inactive'),
  ('TLQNNLTFPDCLGLRCGSHV', 5.03),
  ('FMDKVFSIP', -0.101),
  ('VHNCMVFLLKFIDSRHFIVI', -0.292),
  ('GPDINSCRSCFSWYIVWFLV', 0.318),
  ('HPSSKLSRMCLD', 0.717),
  ('SILMIMMTLSSVQRLMLTGS', -0.161),
  ('GIRMRSKNYGSWWFPLLYGE', 0.827),
  ('DYAGWPYLPSMHQATLQDAR', 0.275),
  ('VGVGFIHNLGTLEIQVT', -0.359),
  ('TWLQPLNRTMNWMTSTAGFR', 'inactive'),
  ('MNYVSMHDYYRVVH', 0.128),
  ('RMQRNRGYPKVLLDMN', -0.472),
  ('FVFLISAL', -0.617),
  ('ICGQLPISMGVLSIFWWFES', 0.331),
  ('HTVPILRSAVPDSDARAKSQ', 0.493),
  ('TYTGFYCVRKLILVRRVSVW', -0.897),
  ('YFGSLYERGRIIGRRVMR', 0.267),
  ('SSMWFYLRM', -0.595),
  ('RCGCERTYSFR', -0.027),
  ('IVMCTVGKSLMIAQKDHAWA', -0.109),
  ('WMVSSVIRARGL', 3.23),
  ('ISYQVLFIDRWGCRSLPCVW', 0.395),
  ('KLTCRDSRFVRAIFVMSKSA', -0.458),
  ('CFVMLFDRYVNLLIGNQLWY', 0.145),
  ('ANFGFWFAFYSAARSDRTSL', -0.421),
  ('KTCWTILSVLLTLK', 0.489),
  ('LAVFRCAARYYWNSFCLSRT', 0.03),
  ('VCWLGIKCVRVISNWLCAQS', -1.04),
  ('VILECNVAGVGELAQCQCAG', 0.986),
  ('IPKVRTRVLGIISTTSLLGG', 0.037),
  ('CCVDGLLLIERHVSLQYHSA', 0.135),
  ('IKLQWS', -0.323),
  ('VVRPAPRDKPTGPSLCLWGN', 0.086),
  ('MLLWVWMEFY', 0.991),
  ('SCVRCQLS', 7.45),
  ('LLDWGFPG', -1.22),
  ('TCVGDCGCIGWSTIFFSDYS', 1.43),
  ('WYEWSPFSSTWRSSIVLFNL', 0.417),
  ('KRRVSLCMPWVGSDRRVFMG', 0.377),
  ('VQIFEKLVQRSSVRQSENLK', 0.037),
  ('FSASLNDLGLQKRVNVSVD', -0.413),
  ('PKVWGGIHYFHFVTEYSTIS', 0.309),
  ('EVAMVYFKCVLFITSDSKQR', -0.823),
  ('LWAFIIGIVSTTLLGYKPFH', -0.344),
  ('AVVWDTIYNKTKPLVRP', 0.57),
  ('CAKGGPSGYKN', -1.41),
  ('SSLVVAWF', 0.219),
  ('FVMRAFNLIRWVGSACNLET', 'inactive'),
  ('VGWSMWNMIRMMVVPVAGPG', 0.253),
  ('LTVLACPRYSS', 0.525),
  ('SGFIGS', -1.33),
  ('LSQTKSL', -0.012),
  ('CSKFLVVVSVYFLVYSVEHM', -0.94),
  ('VPENLVKMSEV', 0.279),
  ('WLSSLARIWSRQMREYNS', 0.64),
  ('RVNFSDTYTSSGGFALGMST', 0.43),
  ('NADVTCVISGLRKTYCVSDD', 0.577),
  ('LLCYMRGYPSCL', 0.512),
  ('AYYGDGFAKGTMLMTS', -0.35),
  ('GNYSIARGLKNDKWCFFSSY', -0.234),
  ('IERKLCKIGVMK', 0.597),
  ('VRLCLVLLESDLLTGTVGIG', -1.02),
  ('EGVNYIMKDVLLVDTKVAEN', -0.175),
  ('LAWTMSQQIGETRRGAEMCT', 0.106);
